- subject_of_test: DNA gyrase (Escherichia coli, UniProt P0AES4+P0AES6)
- assay_info: Inhibition of Escherichia coli DNA gyrase supercoiling activity using pBR322 as substrate incubated for 30 mins by fluorimetric assay
quantity: IC50
Returns: string containing the number followed by the unit.

Query block: Form: Entry = O=C(CCN1CCN(c2cc3c(cc2F)c(=O)c(C(=O)O)cn3C2CC2)CC1)Nc1ccc(S(=O)(=O)Nc2ncccn2)cc1 | System = DNA gyrase (Escherichia coli, UniProt P0AES4+P0AES6) | IC50 = ____
Result block: 1990 nM

Query block: Same again, this time with O=C(CN1CCN(c2cc3c(cc2F)c(=O)c(C(=O)O)cn3C2CC2)CC1)Nc1ccc(S(=O)(=O)Nc2cnc3ccccc3n2)cc1
Result block: 550 nM

Query block: Same again, this time with NC(N)=NS(=O)(=O)c1ccc(/N=N/N2CCN(c3cc4c(cc3F)c(=O)c(C(=O)O)cn4C3CC3)CC2)cc1
Result block: 770 nM

Query block: Same again, this time with Cc1cc(NS(=O)(=O)c2ccc(NC(=O)C(C)N3CCN(c4cc5c(cc4F)c(=O)c(C(=O)O)cn5C4CC4)CC3)cc2)no1 (configuration not stated)
Result block: 1270 nM

Query block: Same again, this time with CC(C(=O)Nc1ccc(S(=O)(=O)Nc2cnc3ccccc3n2)cc1)N1CCN(c2cc3c(cc2F)c(=O)c(C(=O)O)cn3C2CC2)CC1 (configuration not stated)
Result block: 1440 nM

Next:
Query block: Form: Entry = Cc1cc(NS(=O)(=O)c2ccc(NC(=O)CN3CCN(c4cc5c(cc4F)c(=O)c(C(=O)O)cn5C4CC4)CC3)cc2)no1 | System = DNA gyrase (Escherichia coli, UniProt P0AES4+P0AES6) | IC50 = ____
Result block: 1330 nM

Query block: Same again, this time with O=C(CCN1CCN(c2cc3c(cc2F)c(=O)c(C(=O)O)cn3C2CC2)CC1)Nc1ccc(S(=O)(=O)Nc2cncc(Cl)n2)cc1
Result block: 1240 nM

###

Measured MIC accompanies every entry in the list below.
- Tested on: Escherichia coli
- assay_info: Antibacterial activity against Escherichia coli ATCC 8739 assessed as inhibition of bacterial growth incubated for 24 hrs by broth microdilution method
- Type: functional
Reply numerically in µM, unit not repeated.

Query block: Form: Entry = Cc1cc(NS(=O)(=O)c2ccc(NC(=O)CCN3CCN(c4cc5c(cc4F)c(=O)c(C(=O)O)cn5C4CC4)CC3)cc2)no1 | System = Escherichia coli | MIC = ____
Result block: 5.22

Query block: Same again, this time with O=C(O)c1cn(C2CC2)c2cc(N3CCN(/N=N/c4ccc(S(=O)(=O)Nc5ncccn5)cc4)CC3)c(F)cc2c1=O
Result block: 0.013

Query block: Same again, this time with O=C(CN1CCN(c2cc3c(cc2F)c(=O)c(C(=O)O)cn3C2CC2)CC1)Nc1ccc(S(=O)(=O)Nc2cncc(Cl)n2)cc1
Result block: 2.54

Query block: Same again, this time with Cc1cc(NS(=O)(=O)c2ccc(NC(=O)CN3CCN(c4cc5c(cc4F)c(=O)c(C(=O)O)cn5C4CC4)CC3)cc2)no1
Result block: 7.47

Query block: Same again, this time with O=C(O)c1cn(C2CC2)c2cc(N3CCN(/N=N/c4ccc(S(=O)(=O)Nc5cnc6ccccc6n5)cc4)CC3)c(F)cc2c1=O
Result block: 0.389

Query block: Same again, this time with O=C(CN1CCN(c2cc3c(cc2F)c(=O)c(C(=O)O)cn3C2CC2)CC1)Nc1ccc(S(=O)(=O)Nc2cnc3ccccc3n2)cc1
Result block: 0.744

Query block: Same again, this time with CC(C(=O)Nc1ccc(S(N)(=O)=O)cc1)N1CCN(c2cc3c(cc2F)c(=O)c(C(=O)O)cn3C2CC2)CC1 (configuration not stated)
Result block: 0.897

###

- Tested on: Escherichia coli
- assay_info: Antibacterial activity against Escherichia coli ATCC 8739 assessed as inhibition of bacterial growth incubated for 24 hrs by broth microdilution method
- Type: functional
hey, just use fulfilled if measured MIC is less than 1 µM, otherwise not fulfilled

Please review the entries below; each comes with its answer.
Query block: Bench note: check whether O=C(CCN1CCN(c2cc3c(cc2F)c(=O)c(C(=O)O)cn3C2CC2)CC1)Nc1ccc(S(=O)(=O)Nc2ncccn2)cc1 shows MIC below 1 µM
Result block: not fulfilled

Query block: Same again, this time with NC(N)=NS(=O)(=O)c1ccc(/N=N/N2CCN(c3cc4c(cc3F)c(=O)c(C(=O)O)cn4C3CC3)CC2)cc1
Result block: not fulfilled

Query block: Same again, this time with NS(=O)(=O)c1ccc(NC(=O)CCN2CCN(c3cc4c(cc3F)c(=O)c(C(=O)O)cn4C3CC3)CC2)cc1
Result block: fulfilled

Query block: Same again, this time with NS(=O)(=O)c1ccc(NC(=O)CN2CCN(c3cc4c(cc3F)c(=O)c(C(=O)O)cn4C3CC3)CC2)cc1
Result block: not fulfilled

Query block: Same again, this time with O=C(CN1CCN(c2cc3c(cc2F)c(=O)c(C(=O)O)cn3C2CC2)CC1)Nc1ccc(S(=O)(=O)Nc2ncccn2)cc1
Result block: not fulfilled

Now turn to the next compound.
Query block: Bench note: check whether O=C(CCN1CCN(c2cc3c(cc2F)c(=O)c(C(=O)O)cn3C2CC2)CC1)Nc1ccc(S(=O)(=O)Nc2cncc(Cl)n2)cc1 shows MIC below 1 µM
Result block: not fulfilled

###

- subject_of_test: DNA gyrase (Escherichia coli, UniProt P0AES4+P0AES6)
- assay_info: Inhibition of Escherichia coli DNA gyrase supercoiling activity using pBR322 as substrate incubated for 30 mins by fluorimetric assay
quantity: IC50 (µM)
Reply numerically in µM, unit not repeated.

Query block: Bench note: what IC50 did CC(C(=O)Nc1ccc(S(N)(=O)=O)cc1)N1CCN(c2cc3c(cc2F)c(=O)c(C(=O)O)cn3C2CC2)CC1 (configuration not stated) show?
Result block: 5.65

Query block: Same again, this time with O=C(O)c1cn(C2CC2)c2cc(N3CCN(/N=N/c4ccc(S(=O)(=O)Nc5ncccn5)cc4)CC3)c(F)cc2c1=O
Result block: 12.8

Query block: Same again, this time with O=C(CN1CCN(c2cc3c(cc2F)c(=O)c(C(=O)O)cn3C2CC2)CC1)Nc1ccc(S(=O)(=O)Nc2ncccn2)cc1
Result block: 2.87

Query block: Same again, this time with O=C(CN1CCN(c2cc3c(cc2F)c(=O)c(C(=O)O)cn3C2CC2)CC1)Nc1ccc(S(=O)(=O)Nc2cncc(Cl)n2)cc1
Result block: 0.9

Query block: Same again, this time with O=C(O)c1cn(C2CC2)c2cc(N3CCN(/N=N/c4ccc(S(=O)(=O)Nc5cnc6ccccc6n5)cc4)CC3)c(F)cc2c1=O
Result block: 5.86

Query block: Same again, this time with O=C(O)c1cn(C2CC2)c2cc(N3CCN(/N=N/c4ccc(S(=O)(=O)Nc5cncc(Cl)n5)cc4)CC3)c(F)cc2c1=O
Result block: 13

Query block: Same again, this time with NS(=O)(=O)c1ccc(NC(=O)CCN2CCN(c3cc4c(cc3F)c(=O)c(C(=O)O)cn4C3CC3)CC2)cc1
Result block: 1.1

Query block: Same again, this time with Cc1cc(NS(=O)(=O)c2ccc(NC(=O)CCN3CCN(c4cc5c(cc4F)c(=O)c(C(=O)O)cn5C4CC4)CC3)cc2)no1
Result block: 6.31

Query block: Same again, this time with Cc1cc(NS(=O)(=O)c2ccc(/N=N/N3CCN(c4cc5c(cc4F)c(=O)c(C(=O)O)cn5C4CC4)CC3)cc2)no1
Result block: 1.95

Query block: Same again, this time with NS(=O)(=O)c1ccc(/N=N/N2CCN(c3cc4c(cc3F)c(=O)c(C(=O)O)cn4C3CC3)CC2)cc1
Result block: 3.56

Next:
Query block: Bench note: what IC50 did NS(=O)(=O)c1ccc(NC(=O)CN2CCN(c3cc4c(cc3F)c(=O)c(C(=O)O)cn4C3CC3)CC2)cc1 show?
Result block: 1.32

Query block: Same again, this time with O=C(CCN1CCN(c2cc3c(cc2F)c(=O)c(C(=O)O)cn3C2CC2)CC1)Nc1ccc(S(=O)(=O)Nc2cnc3ccccc3n2)cc1
Result block: 0.43

###

- System: Escherichia coli
- assay_info: Antibacterial activity against Escherichia coli ATCC 8739 assessed as inhibition of bacterial growth incubated for 24 hrs by broth microdilution method
- Format: functional
Measured log10 MIC accompanies every entry in the list below.
Values reflect log10 of reported MIC (µM).

Look over these answered cases.
Query block: Bench note: what log10 MIC did O=C(O)c1cn(C2CC2)c2cc(N3CCNCC3)c(F)cc2c1=O [CIPROFLOXACIN] show?
Result block: -0.59

Query block: Same again, this time with Cc1cc(NS(=O)(=O)c2ccc(NC(=O)C(C)N3CCN(c4cc5c(cc4F)c(=O)c(C(=O)O)cn5C4CC4)CC3)cc2)no1 (configuration not stated)
Result block: 0.02

Next:
Query block: Bench note: what log10 MIC did Cc1cc(NS(=O)(=O)c2ccc(/N=N/N3CCN(c4cc5c(cc4F)c(=O)c(C(=O)O)cn5C4CC4)CC3)cc2)no1 show?
Result block: 0.05

Query block: Same again, this time with CC(C(=O)Nc1ccc(S(=O)(=O)Nc2cnc3ccccc3n2)cc1)N1CCN(c2cc3c(cc2F)c(=O)c(C(=O)O)cn3C2CC2)CC1 (configuration not stated)
Result block: 0.29

Query block: Same again, this time with NS(=O)(=O)c1ccc(/N=N/N2CCN(c3cc4c(cc3F)c(=O)c(C(=O)O)cn4C3CC3)CC2)cc1
Result block: -1.60

Query block: Same again, this time with O=C(CCN1CCN(c2cc3c(cc2F)c(=O)c(C(=O)O)cn3C2CC2)CC1)Nc1ccc(S(=O)(=O)Nc2cnc3ccccc3n2)cc1
Result block: -0.22

Query block: Same again, this time with O=C(O)c1cn(C2CC2)c2cc(N3CCN(/N=N/c4ccc(S(=O)(=O)Nc5cncc(Cl)n5)cc4)CC3)c(F)cc2c1=O
Result block: 0.12
